Target: hA2B receptors (Homo sapiens)
Sequence (P29275 1-332): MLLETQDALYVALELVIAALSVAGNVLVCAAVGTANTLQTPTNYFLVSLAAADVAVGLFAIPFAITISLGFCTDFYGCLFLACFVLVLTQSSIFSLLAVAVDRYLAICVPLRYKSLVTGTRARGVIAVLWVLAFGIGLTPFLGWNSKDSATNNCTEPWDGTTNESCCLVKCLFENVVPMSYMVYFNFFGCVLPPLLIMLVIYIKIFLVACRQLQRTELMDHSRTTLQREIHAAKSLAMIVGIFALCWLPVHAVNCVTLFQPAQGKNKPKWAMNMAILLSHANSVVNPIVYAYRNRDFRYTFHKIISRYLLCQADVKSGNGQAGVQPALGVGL
METRIC NAME: IC50 (µM)
Give bare numbers, in µM.

{"STRUCTURE NOTATION": "CCCn1c(=O)c2[nH]c(-c3ccc(S(=O)(=O)NCCc4ccccn4)cc3)cc2n(C)c1=O", "VALUE UNITS": "µM", "IC50": 0.017}
{"STRUCTURE NOTATION": "CCCn1c(=O)c2[nH]c(-c3ccc(S(=O)(=O)N4CCN(Cc5ccc6c(c5)OCO6)CC4)cc3)cc2n(C)c1=O", "VALUE UNITS": "µM", "IC50": 0.006}
{"STRUCTURE NOTATION": "CCCn1c(=O)c2[nH]c(-c3ccc(S(=O)(=O)N4CCN(Cc5ccc(F)cc5)CC4)cc3)cc2n(C)c1=O", "VALUE UNITS": "µM", "IC50": 0.009}

Give one value of IC50 per listed compound.
1. CCCn1c(=O)c2[nH]c(-c3ccc(S(=O)(=O)N4CCN(c5ccccn5)CC4)cc3)cc2n(C)c1=O
2. Cn1c(=O)c2[nH]c(-c3ccc(S(=O)(=O)N4CCN(Cc5ccccc5)CC4)cc3)cc2n(C)c1=O

## Output
1. 0.012
2. 0.016
